Data origin: PubChem BioAssay

experiment: basal MM1S mitochondrial membrane potential changes, profiling panel, cell-based, JC-1 fluorescence, 24 h, 100 nL compound (AID 1170); settings: higher = more signal; also: test concentration not given here
Each entry below carries its recorded z-score.
experimental-readout: z-score

# molecule, result-value
data = [
    ("COC(=O)[C@@H]1CC[C@H](C)[C@@H](c2ccc(C)cc2)N1C(=O)c1ccc(C=NO[C@@H]2O[C@H](COC(C)=O)[C@@H](OC(C)=O)[C@H](OC(C)=O)[C@H]2OC(C)=O)cc1", 0.155),
    ("O=C1[C@H]2[C@H]3[C@H](O)[C@H](O)CC(=NOC[C@@H](O)COCc4ccco4)[C@H]3CC[C@H]2C(=O)N1C[C@@H]1CCCO1", -0.278),
    ("CO[C@@H]1COC(=O)[C@@H](C)COC(=O)[C@@H](C)NC(=O)CC=C[C@@H]1C", -1.48),
    ("CCCNC(=O)OC[C@H]1O[C@H](CCON=C(C)CCN2CCCc3nc(C)c(C)cc32)C=C[C@@H]1Oc1ccc(OC)cc1", 0.023),
    ("C[C@H]1Cc2c(COc3ccccc3)nc3c(c2CO1)CN(CCOc1ccccc1)CC3", 0.184),
    ("C[C@@H](ON=C1[C@H]2CCn3c(=O)n(-c4ccccc4)c(=O)n3[C@H]2[C@H](O)[C@@H]2O[C@H]12)c1cn([C@@H]2COC[C@H]2O)nn1", -0.696),
    ("COc1cccc([C@H]2Oc3ccc(OC)cc3C(=NO[C@@H]3O[C@H](COC(C)=O)[C@@H](OC(C)=O)[C@H](OC(C)=O)[C@H]3OC(C)=O)[C@@H]2O)c1", 0.0745),
    ("CCOC(=O)NN=C1C[C@@H](O)[C@@H](O)[C@@H]2[C@@H]3C(=O)N(C(C)(C)C)C(=O)[C@@H]3CC[C@H]12", -1.59),
    ("CCOC(=O)NN=C1C[C@@H](O)[C@@H](O)[C@@H]2[C@@H]3C(=O)N(Cc4ccccc4)C(=O)[C@@H]3CC[C@H]12", -0.68),
    ("CCOC(=O)[C@H](Cc1ccccc1)NC(=O)CCC1CC(OC(=O)NCc2cccc3ccccc23)CC2(CCCC(COC(=O)NCc3cccc(C(F)(F)F)c3)O2)O1 (stereo partly drawn)", -0.868),
    ("CCc1cc2c(nc1CC)CCN(CCC(C)=NO[C@H](C)c1cn([C@@H]3COC[C@H]3O)nn1)C2", -0.676),
    ("COC(=O)C=CCCc1coc(C=CCNC(=O)OC)n1", 0.681),
    ("CC(C)CON=C1C[C@@H](O)[C@@H](O)[C@@H]2[C@@H]3C(=O)N(C[C@@H]4CCCO4)C(=O)[C@@H]3CC[C@@H]12", -0.0595),
]

====

tested on: Lefty1; test: Lefty1 binders on small-molecule microarrays, primary screen, biochemical, small-molecule microarray, 635/667 nm fluorescence (AID 1139); conditions: small-molecule microarray binding, fluorescence 635/667; higher = more signal
We begin with a simple list: items and their reported composite z-score.

# molecule, composite z-score
data = [
    ("O=C1[C@H]2[C@H]3[C@H](O)[C@H](O)CC(=NOCc4ccccc4)[C@@H]3CC[C@H]2C(=O)N1Cc1ccc2c(c1)OCO2", 0.268),
    ("CO[C@@H]1COC(=O)[C@@H]2CCCN2C(=O)[C@@H](C)COC(=O)CC=C[C@H]1C", 1.01),
    ("CCOC(=O)NN=C1C[C@@H](O)[C@@H](O)[C@@H]2[C@@H]3C(=O)N(c4ccc(F)cc4F)C(=O)[C@@H]3CC[C@@H]12", 0.775),
    ("COC(=O)[C@H](C)NC(=O)CCC1CC(OC(=O)NCCc2ccc(F)cc2)CC2(CCCC(COC(=O)NCc3cccc(C(F)(F)F)c3)O2)O1 (some centres undefined)", 1.43),
]

====

Each entry below carries its reported composite z-score.
tested on: Human papillomavirus type 1a protein E7 (residues 44-93); assay: HPV1a E7 fragment binders on microarrays, primary screen, biochemical, small-molecule microarray, residues 44-93, 635 nm fluorescence (AID 1108); details: small-molecule microarray binding, fluorescence 635 nm; higher = more signal;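 also: E7 fragment applied at 1 µg/mL in TBST for 1 h at 4 C; score combines spot fluorescence with its signal to noise ratio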

# structure-string, composite z-score
measured = [
    ("CO[C@H]1COC(=O)[C@@H](C)COC(=O)[C@H](C)NC(=O)CC=C[C@H]1C", -0.328),
    ("O=C1C[C@@H](O)[C@@H](O)[C@@H]2[C@@H]3C(=O)N(Cc4ccccc4)C(=O)[C@@H]3CC[C@@H]12", 0.467),
    ("COc1ccc(O[C@H]2C=C[C@@H](c3ccccc3)O[C@@H]2CON=C2[C@H]3CCn4c(=O)n(-c5ccccc5)c(=O)n4[C@H]3[C@H](O)[C@@H]3O[C@H]23)cc1", 0.807),
]

====

target: Pro-neuregulin-1, membrane-bound isoform (Homo sapiens) (UniProt Q02297); test: NRG1 binders on small-molecule microarrays, primary screen, psychiatric disease protein project, biochemical, small-molecule microarray, fluorescence 635/667 (AID 1075); conditions: NRG1 binding, 635 nm fluorescence, higher = more signal;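 also: score combines 667 nm spot fluorescence with signal to noise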
Sequence (Q02297 whole entry, looked up, canonical isoform): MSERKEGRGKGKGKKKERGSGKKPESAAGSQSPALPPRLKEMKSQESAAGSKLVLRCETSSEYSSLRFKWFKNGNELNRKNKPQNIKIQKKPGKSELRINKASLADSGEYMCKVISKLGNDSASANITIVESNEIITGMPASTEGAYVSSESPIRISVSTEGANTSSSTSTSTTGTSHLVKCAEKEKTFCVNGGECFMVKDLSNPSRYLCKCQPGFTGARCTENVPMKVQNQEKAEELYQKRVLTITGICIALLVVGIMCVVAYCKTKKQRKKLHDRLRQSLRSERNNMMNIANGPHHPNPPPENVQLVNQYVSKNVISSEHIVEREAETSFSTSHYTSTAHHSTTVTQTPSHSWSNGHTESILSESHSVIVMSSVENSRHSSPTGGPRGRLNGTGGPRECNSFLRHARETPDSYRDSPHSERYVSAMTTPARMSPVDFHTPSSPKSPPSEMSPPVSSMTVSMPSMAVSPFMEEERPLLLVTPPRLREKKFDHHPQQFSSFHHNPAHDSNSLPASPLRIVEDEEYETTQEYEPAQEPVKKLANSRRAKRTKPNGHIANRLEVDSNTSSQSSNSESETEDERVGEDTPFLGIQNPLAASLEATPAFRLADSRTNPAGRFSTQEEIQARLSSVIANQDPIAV
experimental-readout: composite z-score

# molecule, result-value
measured = [
    ("COC(=O)[C@@H]1CC[C@H](C)[C@@H](c2ccc(C)cc2)N1C(=O)c1ccc(C=NO[C@@H]2O[C@H](COC(C)=O)[C@@H](OC(C)=O)[C@H](OC(C)=O)[C@H]2OC(C)=O)cc1", 0.0818),
    ("CC(C)(C)N1C(=O)[C@H]2[C@H]3[C@H](O)C=CC(=O)[C@@H]3CC[C@H]2C1=O", -0.261),
    ("CCN1C(=O)[C@H]2[C@H]3[C@H](O)[C@H](O)CC(=O)[C@H]3CC[C@H]2C1=O", 0.298),
    ("CO[C@H]1COC(=O)CCC[C@@H](C)[C@H](OC)COC(=O)[C@@H]2CCCN2C(=O)CC=C[C@@H]1C", -0.508),
    ("O=C1[C@H]2[C@H]3[C@H](O)[C@H](O)CC(=NOC[C@@H](O)COCc4ccco4)[C@@H]3CC[C@H]2C(=O)N1C[C@@H]1CCCO1", -0.271),
    ("COc1ccc(O[C@H]2C=C[C@@H](c3ccccc3)O[C@@H]2COC(=O)CCC(C)=NOC[C@@H](O)[C@H]2O[C@@H]3OC(C)(C)O[C@@H]3[C@H]2O)cc1", 0.0094),
    ("C[C@@H](c1ccccc1)N1C(=O)[C@H]2[C@H]3[C@H](O)[C@H](O)CC(=O)[C@H]3CC[C@H]2C1=O", 0.286),
    ("CCc1cc2c(nc1CC)CCN(CCC(C)=NO[C@H](C)c1cn([C@H](CO)Cc3ccccc3)nn1)C2", 0.107),
    ("COC(=O)[C@H](C)NC(=O)CCC1CC(OC(=O)NCc2ccc3c(c2)OCO3)CC2(CCCC(COC(=O)NCC(c3ccccc3)c3ccccc3)O2)O1 (some centres undefined)", 0.682),
]

====

assay: E. coli acrAB mutant growth effects, primary screen, E. coli filamentation inducers, strain DRC39, OD650, 24 h (AID 1178); conditions: higher = more signal, called active from +8 up or from −8 down;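 also: growth measured as culture turbidity by optical density at 650 nm; test concentration not given here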
Reported z-score values follow for various compounds

# compound, z-score
data = [
    ("O=C1[C@H]2[C@H]3[C@H](O)[C@H](O)CC(=NOCc4ccccc4)[C@H]3CC[C@H]2C(=O)N1Cc1ccc2c(c1)OCO2", 0.698),
    ("CCOC(=O)[C@H](Cc1ccccc1)NC(=O)OC1CC(CCC2CC(CC)=NO2)OC2(CCCC(COC(=O)NCCC(C)C)O2)C1 (some centres undefined)", 0.347),
    ("COC(=O)[C@H]1[C@@H](O)[C@@]2(O)c3ccccc3O[C@@]2(c2ccccc2)[C@@H]1c1ccccc1", -0.306),
    ("CCCNC(=O)OC[C@H]1O[C@H](c2ccccc2)C=C[C@@H]1Oc1ccc(OC)cc1", 0.507),
    ("Cc1ccc(S(=O)(=O)N[C@@H]2COC(=O)[C@@H](C)COC(=O)CC=C[C@H]2C)cc1", 0.155),
    ("C[C@@H](ON=C1[C@H]2CCn3c(=O)n(-c4ccccc4)c(=O)n3[C@H]2[C@H](O)[C@@H]2O[C@H]12)c1cn([C@@H]2COC[C@H]2O)nn1", 0.0645),
    ("CCOC(=O)[C@H](CC(C)C)NC(=O)CCC1CC(OC(=O)NCc2cccc3ccccc23)CC2(CCCC(COC(=O)NCCC(C)C)O2)O1 (some centres undefined)", -0.259),
    ("O=C1C[C@@H](O)[C@@H](O)[C@@H]2[C@@H]3C(=O)N(C[C@@H]4CCCO4)C(=O)[C@@H]3CC[C@@H]12", 0.469),
    ("C[C@@H](c1ccccc1)N1C(=O)[C@H]2[C@H]3[C@H](O)[C@H](O)CC(=NOCc4ccccc4)[C@H]3CC[C@H]2C1=O", 0.273),
]
